# TESTED_SYSTEM: hURAT1 (Homo sapiens, UniProt Q96S37)
# Sequence (Q96S37 1-553): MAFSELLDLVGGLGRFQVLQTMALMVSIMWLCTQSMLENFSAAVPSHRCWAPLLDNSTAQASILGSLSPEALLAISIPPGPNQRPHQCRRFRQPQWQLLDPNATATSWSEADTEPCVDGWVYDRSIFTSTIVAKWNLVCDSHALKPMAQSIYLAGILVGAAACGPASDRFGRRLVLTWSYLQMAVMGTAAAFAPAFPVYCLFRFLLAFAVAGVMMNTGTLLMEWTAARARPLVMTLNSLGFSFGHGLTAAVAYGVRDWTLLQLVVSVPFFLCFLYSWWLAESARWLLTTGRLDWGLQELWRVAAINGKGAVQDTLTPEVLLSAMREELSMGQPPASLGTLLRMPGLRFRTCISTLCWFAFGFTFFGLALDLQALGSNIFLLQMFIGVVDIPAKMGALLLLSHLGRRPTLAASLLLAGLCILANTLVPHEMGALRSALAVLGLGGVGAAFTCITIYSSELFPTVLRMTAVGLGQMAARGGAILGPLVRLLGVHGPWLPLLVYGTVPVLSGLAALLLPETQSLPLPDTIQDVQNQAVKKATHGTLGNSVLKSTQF
# METHOD_DESCRIPTION: Inhibition assay of uric acid transport in HEK293-hURAT1 transfection cell line (14C-uric acid uptake)
# Assay type: cell-based
# MEASUREMENT_SETUP: compound concentration 500 nM; HEK293-hURAT1 stable cells; 14C-uric acid; mean of three tests ±SD; read-out: Inhibition rate of uric acid transport, ±SD (%)
Each entry below carries its reported inhibition at 0.5 µM.
Note: unit % is implicit; provide only the numeric part.

> print(dat)
                                   compound  observed.value
1  O=C(O)CSc1nnc(Br)n1-c1ccc(C2CC2)c2ccccc12 [Zurampic, Lesinurad, reference compound]            27.6
2  [2H]C1c2nc(CC)c(C(=O)c3cc(Br)c(O)c(Br)c3)n2C([2H])C([2H])([2H])C1[2H] (stereo not shown)            47.5
3  CCn1nc2c(c1C(=O)c1cc(Br)c(O)c(Br)c1)CCCC2            46.2

Query string: For hURAT1 (Homo sapiens, UniProt Q96S37), give inhibition at 0.5 µM of the listed compound: CCc1nc2n(c1C(=O)c1cc(Br)c(O)c(Br)c1)CCC(OC)C2 (stereo not shown)
Result string: 47.6

Query string: GET inhibition at 0.5 µM | system: hURAT1 (Homo sapiens, UniProt Q96S37) | item: CCc1nc2n(c1C(=O)c1cc(Br)c(O)c(Br)c1)CC(C)CC2 (stereo not shown)
Result string: 53.2

Query string: Return reported inhibition at 0.5 µM for target or system hURAT1 (Homo sapiens, UniProt Q96S37), item CCc1nc2n(c1C(=O)c1cc(C)c(O)c(Br)c1)CCCC2 .
Result string: 46.1

Query string: Answer with inhibition at 0.5 µM of CCc1nn2c(c1C(=O)c1cc(Br)c(O)c(Br)c1)CCCC2 measured for hURAT1 (Homo sapiens, UniProt Q96S37).
Result string: 43.4

Query string: Please tell me the measured inhibition at 0.5 µM for CCn1nc2c(c1C(=O)c1cc(Br)c(O)c(Br)c1)COCC2 ; system: hURAT1 (Homo sapiens, UniProt Q96S37).
Result string: 38.6
